Test system: MICA*009
Type: binding, human

molecule: E9: VHH specific for MICA, SEQ ID NO: 23 (protein) VHH: MAQVQLVETGGGLVQPGGSLRLSCAASGFTLEHYAIGWFRQAPGKEQEGVSCITSDGDTYYADSVKGRFTISRDNAKNTVYLQMNSLKPEDTAVYYCAADCLSSNWRTSAYWAQGTQVTVSSGGLPETGGHHHHHH
binding to MICA variant (ELISA): observed to bind
--
molecule: H3: VHH specific for MICA, SEQ ID NO: 24 (protein) VHH: MAQVQLVETGGGLVQAGGSLRLSCAASGRTFSSYAMGWFRQAPGKEREFVAGISWSGGSTYYGDSVKGRFTISRDNAKNTVYLLMNSLKPEDTAVYYCAADLVRSYGSSWPSLFQFRNPEDVQDGMDYWGKGTLVTVSSGGLPETGGHHHHHH
binding to MICA variant (ELISA): observed to bind
--
molecule: B11: VHH specific for MICA, SEQ ID NO: 20 (protein) VHH: MAQVQLVETGGGLVQPGGSLRLSCAASGFTLDYYAIGWFRQAPGKEREGVSCITSDGNTYYADSVKGRFTISRDNAKNTVYLQMNSLKPEDTAVYYCAADCLSSTWRTNAYLGQGTQVTVSSGGLPETGGHHHHHH
binding to MICA variant (ELISA): observed to bind
